Source: patent US20240325558A1

- Tested on: BIN1 Exon 11 splicing
- method description: Correction of BIN1 Exon 11 splicing defect in DM1-32F cells, Fab-ASO complexes (Table 9 ASOs; Table 13)
- Type: cell-based, human
- condition summary: 1000 nM ASO equivalent of Fab-ASO complex, ten days; ratio >1 = more wild-type splicing
Doc: threshold 2 (exclusive). Items with 32F Cells BIN1 Exon 11 inclusion vs. Vehicle beneath it return fulfilled; others return not fulfilled.

| substance | class |
| --- | --- |
| oC*oC*oA*oU*oG*dA*dC*dA*dA*dT*dC*dT*dC*xdC*dG*oC*oC*oA*oG*oG [ASO14] | fulfilled |
| QU*oA*oC*oA*G*dG*dT*dA*dG*dT*dT*dC*dT*dC*dA*oU*oC*oC*oU*oG [ASO5] | not fulfilled |
| OA*oG*oC*oG*oU*dC*dA*dC*dC*dT*xdC*dG*dG*dC*dC*oU*oC*oA*oG*oC [ASO37] | not fulfilled |
| oG*oC*oA*oU*oC*dC*dA*dA*dA*dA*xdC*dG*dT*dG*dG*oA*oU*oU*oG*oG [ASO44] | fulfilled |
| oU*oC*A*oC*oC*dA*dA*dC*dA*xdC*dG*dT*dC*dC*dC*oU*oC*oU*oC*oC [ASO3] | fulfilled |
| oC*oA*oU*oG*oA*dC*dA*dA*dT*dC*dT*dC*xdC*dG*dC*oC*oA*oG*oG*oU [ASO13] | not fulfilled |
| oU*oG*oA*oC*oC*dA*dG*dG*dT*dA*dC*dA*dG*dG*dT*oA*xoG*oU*oU*oC [ASO9] | fulfilled |
| oG*oG*oC*oC*oA*dT*dG*dA*dC*dA*dA*dT*dC*dT*dC*oC*oG*oC*oC*oA [ASO16] | fulfilled |
| oC*oA*oG*oC*oG*dC*dC*dC*dA*dC*dC*dA*dG*dT*dC*oA*oC*oA*oC*oU [ASO23] | not fulfilled |
| oG*oG*oG*oC*oC*dT*dG*dG*dG*dA*dC*dC*dT*dC*dA*oC*oU*oG*oU*oC [ASO33] | fulfilled |
| oC*oA*oC*oA*oG*xdC*dG*dG*dT*dC*dC*dA*dG*dC*dA*oG*oG*A*oU*oG [ASO20] | not fulfilled |
| oC*oA*oC*oC*oA*dA*dC*dA*xdC*dG*dT*dC*dC*dC*dT*oC*oU*oC*oC*oU [ASO2] | not fulfilled |
| oC*oU*oG*oU*oG*dC*dA*xdC*dG*dT*dA*dG*dC*dC*dA*oA*oG*oC*oC*oG [ASO19] | not fulfilled |
| oG*oA*oA*oU*oG*dT*dC*xdC*dG*dA*dC*dA*dG*dT*dG*oU*oC*oU*oC*oC [ASO31] | not fulfilled |
| oA*oU*oG*oA*oC*dA*dA*dT*dC*dT*dC*xdC*dG*dC*dC*oA*oG*G*oU*oA [ASO12] | fulfilled |
| oC*oC*oA*oC*oU*dT*dC*dA*dG*dC*dT*dG*dT*dT*dT*oC*oA*oU*oC*oC [ASO35] | not fulfilled |
| oU*oG*oU*oG*oC*dA*xdC*dG*dT*dA*dG*dC*dC*dA*dA*oG*oC*oC*oG*oG [ASO18] | fulfilled |
